- measuredOn: menin/MLL (terbium chelate-labeled menin, FITC-MBM1 peptide) (Homo sapiens, UniProt O00255, T541A)
- Construct: Menin (a.a 1-610-6xhis tag, 2.3 mg/mL in 20 mM Hepes)
- Sequence (O00255 with tags, fused parts or gaps T541A): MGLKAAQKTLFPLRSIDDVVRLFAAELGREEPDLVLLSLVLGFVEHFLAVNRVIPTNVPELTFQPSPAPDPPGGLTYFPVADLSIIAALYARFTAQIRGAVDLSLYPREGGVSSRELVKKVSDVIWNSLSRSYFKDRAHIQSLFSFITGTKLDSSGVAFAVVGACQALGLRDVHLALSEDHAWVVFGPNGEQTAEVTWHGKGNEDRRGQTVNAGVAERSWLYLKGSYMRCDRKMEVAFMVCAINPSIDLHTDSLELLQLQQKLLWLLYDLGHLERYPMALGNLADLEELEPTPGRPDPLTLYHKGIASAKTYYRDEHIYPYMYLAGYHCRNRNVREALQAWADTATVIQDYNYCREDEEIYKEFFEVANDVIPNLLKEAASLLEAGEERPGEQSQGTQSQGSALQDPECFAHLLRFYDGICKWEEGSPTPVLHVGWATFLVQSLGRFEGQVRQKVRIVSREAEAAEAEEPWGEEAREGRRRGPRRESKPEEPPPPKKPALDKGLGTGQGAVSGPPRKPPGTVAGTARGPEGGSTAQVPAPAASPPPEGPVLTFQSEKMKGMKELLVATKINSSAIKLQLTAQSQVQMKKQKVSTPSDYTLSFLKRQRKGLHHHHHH
- protocolSummary: Menin/MLL homogenous time-resolved fluorescence (HTRF) assay
- conditionsUsed: 30 min incubation
valueType: IC50 (pM)

I = CCNC(=O)[C@H]1CC[C@H](CN2CC(Cc3cn(-c4ccc(F)cc4C(=O)N(C)C(C)C)c4cncc(C)c34)C2)CC1 [Compound 143]
II = Cc1cncc2c1c(CC1CN(C[C@H]3CC[C@H](C(=O)NC4CC4)CC3)C1)cn2-c1ccc(F)cc1C(=O)N(C)C(C)C [Compound 159]
III = Cc1cncc2c1c(CC1CN(CC3CCCC(=O)N3)C1)cn2-c1ccc(F)cc1C(=O)N(C)C(C)C (stereo not drawn) [Compound 95]
Which order do these items take when sorted by rising IC50? List them. In plain terms: list the labels in the order you were asked to.
II, I, III

====

- measuredOn: menin/MLL (terbium chelate-labeled menin, FITC-MBM1 peptide) (Homo sapiens, UniProt O00255, T541A)
- Construct: Menin (a.a 1-610-6xhis tag, 2.3 mg/mL in 20 mM Hepes)
- protocolSummary: Menin/MLL homogenous time-resolved fluorescence (HTRF) assay
- conditionsUsed: 30 min incubation
valueType: IC50 (nM)

I = CC(=O)N1CC([C@H](C)N2CC[C@@H](Cc3cn(-c4ccc(F)cc4C(=O)N(C)C(C)C)c4cncc(C)c34)C2)C1 (single isomer, unassigned) [Compound 176]
II = CC(=O)N1CCC(O)(CN2CC[C@@H](Cc3cn(-c4ccc(F)cc4C(=O)N(C)C(C)C)c4cncc(C)c34)C2)CC1 [Compound 177]
III = CC(=O)NC1CCC(N2CC[C@@H](Cc3cn(-c4ccc(F)cc4C(=O)N(C)C(C)C)c4cncc(C)c34)C2)CC1 (stereo partly drawn) [Compound 201]
Arrange these compounds by their IC50, starting with the largest number. # format: label list in the order the request specifies
I, II, III

====

- measuredOn: menin/MLL (terbium chelate-labeled menin, FITC-MBM1 peptide) (Homo sapiens, UniProt O00255, T541A)
- Construct: Menin (a.a 1-610-6xhis tag, 2.3 mg/mL in 20 mM Hepes)
- protocolSummary: Menin/MLL homogenous time-resolved fluorescence (HTRF) assay
- conditionsUsed: 30 min incubation
valueType: IC50 (nM)

A = Cc1cncc2c1c(CC1CN(CC3CCOCC3)C1)cn2-c1ccc(F)cc1C(=O)N1CCC[C@H]1C
B = Cc1cncc2c1c(CC1CN(CC3CCCO3)C1)cn2-c1ccc(F)cc1C(=O)N(C)C(C)C (stereo not drawn)
Could you point out whether the larger IC50 belongs to A or to B ? Pick one and reply with its label.
B

A = CC(=O)N1CCC(N2CC[C@@H](Cc3cn(-c4ccc(F)cc4C(=O)N(C)C(C)C)c4cncc(C)c34)C2)C(CO)C1 (mixture of isomers)
B = Cc1cncc2c1c(C[C@@H]1CCN(CC3CCC(=O)N(C)CC3)C1)cn2-c1ccc(F)cc1C(=O)N(C)C(C)C (stereo partly drawn)
Kindly compare A with B and tell me which has the lower IC50 figure. Answer = label.
B

====

- measuredOn: menin/MLL (terbium chelate-labeled menin, FITC-MBM1 peptide) (Homo sapiens, UniProt O00255, T541A)
- Construct: Menin (a.a 1-610-6xhis tag, 2.3 mg/mL in 20 mM Hepes)
- protocolSummary: Menin/MLL homogenous time-resolved fluorescence (HTRF) assay
- conditionsUsed: 30 min incubation
valueType: IC50 (nM)

molecule	IC50 / nM
CN=[S@](=O)(c1cc(F)ccc1-n1cc(C[C@H]2CCN(CC3CCN(C(C)=O)CC3)C2)c2c(C)cncc21)C(C)C (single isomer, unassigned) [Compound 128b]	0.045
Cc1cncc2c1c(C[C@@H]1CCN(CC3CCOCC3)C1)cn2-c1ccc(F)cc1C(=O)N1CCCC1C(C)O (single isomer, unassigned) [Compound 363a]	0.228

A = CC(=O)N1CCC([C@@H](C)N2CC[C@H](Cc3cn(-c4ccc(F)cc4[S@](=N)(=O)C(C)C)c4cncc(C)c34)C2)CC1 (single isomer, unassigned) [Compound 232a]
B = Cc1cncc2c1c(C[C@@H]1CCN(CC3CCOCC3)C1)cn2-c1ccc(F)cc1C(=O)N1C[C@H](O)C[C@H]1C [Compound 359]
C = CCC([C@H]1C[C@@H](N2CCN(C(C)=O)CC2)C1)N1CC[C@@H](Cc2cn(-c3ccc(F)cc3C(=O)N(C)C(C)C)c3cncc(C)c23)C1 (mixture of isomers) [Compound 24]
D = CC(=O)N1C[C@@H]2CN([C@H]3C[C@@H]([C@@H](C(C)C)N4CC(Cc5cn(-c6ccc(F)cc6C(=O)N(C)C(C)C)c6cncc(Cl)c56)C4)C3)C[C@H]2C1 (single isomer, unassigned) [Compound 39a]
hey, can you rank those molecules up there by IC50? biggest number first please Respond with an ordered listing of the labels, as requested.
A, B, C, D
(A: 0.624 nM, B: 0.166 nM, C: 0.057 nM, D: 0.034 nM)

a = Cc1cncc2c1c(C[C@@H]1CCN([C@H](C)C3CCOCC3)C1)cn2-c1ccc(F)cc1[S@@](=N)(=O)C(C)C (single isomer, unassigned) [Compound 182a]
b = CC(=O)N1CCC(CN2C[C@@H](Cc3cn(-c4ccc(F)cc4C(=O)N(C)C(C)C)c4cncc(C)c34)C[C@@H]2C)CC1 [Compound 133]
c = Cc1cncc2c1c(CC1CN(CC3CCOCC3)C1)cn2-c1ccc(F)cc1C(=O)N1C[C@H](O)C[C@@H]1C [Compound 282]
Please rank these molecules by IC50 in descending order. Form entry: labels listed in requested order.
c, a, b
(c: 3.27 nM, a: 0.462 nM, b: 0.051 nM)

====

- Test system: KO-52 cells
- protocolSummary: Proliferation assay (spheroid confluence, 8 days), KO-52 control cell line
- Type: cell-based, human
- conditionsUsed: Homo sapiens, read-out: spheroid assay_KO-52 IC50
- Method: The anti-proliferative effect of menin/MLL protein/protein interaction inhibitor test compounds was assessed in human leukemia cell lines. […] In order to assess the anti-proliferative effects, 200 MOLM14 cells, 200 OCI-AML3 cells or 300 KO-52 cells were seeded in 200 μl media per well in 96-well round bottom, ultra-low attachment plates (Costar, catalogue number 7007). […] Spheroid like growth was measured in real-time by live-cell imaging (IncuCyteZOOM, Essenbio, 4×objective) acquiring images at day 8. […]
valueType: IC50 (µM)
API: value field is a number in µM; no unit string.

Some compounds with recorded IC50:
compound	valueType	unitTag	endpointValue
Cc1cncc2c1c(CC1CN(CC3CCOCC3)C1)cn2-c1ccc(F)cc1C(=O)N1CC2CC1CO2 (stereo not shown)	IC50	µM	13.5
CC(=O)N1CCN(CCCC(C(C)C)N2CCC(Cc3cn(-c4ccc(F)cc4C(=O)N(C)C(C)C)c4cncc(C)c34)C2)CC1 (single isomer, unassigned)	IC50	µM	0.6
Cc1cncc2c1c(CC1CN(C[C@H]3CCOC3)C1)cn2-c1ccc(F)cc1C(=O)N(C)C(C)C (single isomer, unassigned) [Compound 191a]	IC50	µM	4.6

Data request, read-out IC50, for CNC(=O)[C@H]1CC[C@H](CN2CC([C@H](C)c3cn(-c4ccc(F)cc4C(=O)N(C)C(C)C)c4cncc(C)c34)C2)CC1 (single isomer, unassigned) [Compound 164b]
10.4

Name the recorded IC50 for Cc1cncc2c1c(C[C@@H]1CCN(C[C@H]3CC[C@@H](C(=O)N4CCC4)CC3)C1)cn2-c1ccc(F)cc1C(=O)N(C)C(C)C .
2.9

# get_value(readout='IC50', item= Cc1cncc2c1c(CC1CN(CC3CCOCC3)C1)cn2-c1ccc(F)cc1C(=O)N(C)C(C)C )
7.9

Field request: IC50 | item: CC(=O)N1CCC(C)(CN2CC(Cc3cn(-c4ccc(F)cc4C(=O)N(C)C(C)C)c4cncc(C)c34)C2)CC1
4.3

Entry Cc1cncc2c1c(CC1CN(CC3CCOCC3)C1)cn2-c1ccc(F)cc1C(=O)N1CCC[C@H]1C : reported IC50 = ?
5.1

Suppose we examine the compound CC(=O)N1CCC(N2CC[C@H](Cc3cn(-c4ccc(F)cc4C(=O)N(C)C(C)C)c4cncc(C)c34)C2)CC1 (single isomer, unassigned) ; what IC50 value has been reported?
4

Looking for the measured IC50 of Cc1cncc2c1c(CC1CCN(CC3CCN(C(=O)C(C)(C)O)CC3)C1)cn2-c1ccc(F)cc1C(=O)N(C)C(C)C (single isomer, unassigned) , can you help?
7

Could you share which IC50 value was measured for Cc1cncc2c1c(C[C@@H]1CCN(CC3CCNC(=O)CC3)C1)cn2-c1ccc(F)cc1C(=O)N(C)C(C)C (mixture of isomers) ?
10
